target: recombinant human ATX (Homo sapiens, UniProt Q13822); experiment: Choline detection assay for ATX; format: biochemical; conditions: table of g1-g15 (β-keto phosphonates); 100 μM test compound; activity without test compound = 100%
READOUT_LABEL: ATX activity (%) 100 μM

INSERT INTO results (smiles_notation, readout_label, scale_unit, reported_measurement) VALUES
  ('CCCCCCCCCCCCCCCC(=O)N[C@@H](Cc1ccc(OCCC)cc1)C(=O)CP(=O)(O)O', 'ATX activity (%) 100 μM', '%', 72),
  ('CCCCCCCCCCCCCCCC(=O)N[C@@H](Cc1ccc(OC)cc1)C(=O)CP(=O)(O)O', 'ATX activity (%) 100 μM', '%', 45),
  ('CCCCCCCCCCCCCCCC(=O)N[C@H](Cc1ccc(OCc2ccccc2)cc1)C(=O)CP(=O)(O)O', 'ATX activity (%) 100 μM', '%', 76),
  ('CCCCCCCCCCCCCCCC(=O)N[C@H](Cc1ccc(OCCC)cc1)C(=O)CP(=O)(O)O', 'ATX activity (%) 100 μM', '%', 75),
  ('CCCCCCCCCCCCCCCC(=O)N[C@@H](Cc1ccc(OCc2ccccc2)cc1)C(=O)CP(=O)(O)O', 'ATX activity (%) 100 μM', '%', 61),
  ('CCCCCCCCCCCCCCCC(=O)N[C@@H](Cc1ccc(OCc2ncc(C)c(OC)c2C)cc1)C(=O)CP(=O)(O)O', 'ATX activity (%) 100 μM', '%', 26),
  ('CCCCCCCCCCCCCCCC(=O)N[C@H](Cc1ccc(OC)cc1)C(=O)CP(=O)(O)O', 'ATX activity (%) 100 μM', '%', 32);

* * *

target: recombinant human ATX (Homo sapiens); experiment: Choline detection assay for ATX; assay type: biochemical; details: Table 1 (f1-f34); 1 μM test compound; activity without test compound = 100%; 1 µM
READOUT_LABEL: ATX activity (%) 1 μM

INSERT INTO assay_data (molecule, readout_label, scale_unit, reported_measurement) VALUES
  ('CCCCCCCCCCCCCCCC(=O)N[C@@H](Cc1ccc(OCCCCC)cc1)C(O)CP(=O)(O)O (single isomer, unassigned) [f30]', 'ATX activity (%) 1 μM', '%', 94),
  ('CCCCCCCCCCCCCCCC(=O)N[C@H](Cc1ccc(OCCCCC)cc1)C(O)CP(=O)(O)O (single isomer, unassigned) [f28]', 'ATX activity (%) 1 μM', '%', 86),
  ('CCCCCCCCCCCCCCCC(=O)N[C@H](Cc1ccc(OCCCCC)cc1)C(O)CP(=O)(O)O (single isomer, unassigned) [f27]', 'ATX activity (%) 1 μM', '%', 81),
  ('CCCCCCCCCCCCCCCC(=O)N[C@@H](Cc1ccc(OCCC)cc1)C(O)CP(=O)(O)O (single isomer, unassigned) [f26]', 'ATX activity (%) 1 μM', '%', 100),
  ('CCCCCCCCCCCCCCCC(=O)N[C@H](Cc1ccc(OCc2ccccc2)cc1)C(O)CP(=O)(O)O (single isomer, unassigned) [f6]', 'ATX activity (%) 1 μM', '%', 80),
  ('CCCCCCCCCCCCCCCC(=O)N[C@@H](Cc1ccc(OCc2ccccc2)cc1)C(O)CP(=O)(O)O (single isomer, unassigned) [f8]', 'ATX activity (%) 1 μM', '%', 76),
  ('CCCCCCCCCCCCCCCC(=O)N[C@H](Cc1ccc(OCc2ccccc2)cc1)C(O)CP(=O)(O)O (single isomer, unassigned) [f5]', 'ATX activity (%) 1 μM', '%', 83),
  ('CCCCCCCCCCCCCCCC(=O)N[C@H](Cc1ccc(OCCC)cc1)C(O)CP(=O)(O)O (single isomer, unassigned) [f23]', 'ATX activity (%) 1 μM', '%', 80),
  ('CCCCCCCCCCCCCCCC(=O)N[C@H](Cc1ccc(OC)cc1)C(O)CP(=O)(O)O (single isomer, unassigned) [f19]', 'ATX activity (%) 1 μM', '%', 100),
  ('CCCCCCCCCCCCCCCC(=O)N[C@H](Cc1ccc(OCc2ccccc2)cc1)C(O)CP(=O)(O)O (single isomer, unassigned) [f9]', 'ATX activity (%) 1 μM', '%', 103),
  ('CCCCCCCCCCCCCCCC(=O)N[C@@H](Cc1ccc(OC)cc1)C(O)CP(=O)(O)O (single isomer, unassigned) [f21]', 'ATX activity (%) 1 μM', '%', 77),
  ('CCCCCCCCCCCCCCCC(=O)N[C@H](Cc1ccc(OC)cc1)C(O)CP(=O)(O)O (single isomer, unassigned) [f20]', 'ATX activity (%) 1 μM', '%', 95),
  ('CCCCCCCCCCCCCCCC(=O)N[C@@H](Cc1ccc(OCc2ccccc2)cc1)C(O)CP(=O)(O)O (single isomer, unassigned) [f7]', 'ATX activity (%) 1 μM', '%', 97),
  ('CCCCCCCCCCCCCCCC(=O)N[C@H](Cc1ccc(OCc2ncc(C)c(OC)c2C)cc1)C(O)CP(=O)(O)O (single isomer, unassigned) [f16]', 'ATX activity (%) 1 μM', '%', 69),
  ('CCCCCCCCCCCCCCCC(=O)N[C@H](Cc1ccc(OCCC)cc1)C(O)CP(=O)(O)O (single isomer, unassigned) [f24]', 'ATX activity (%) 1 μM', '%', 108),
  ('CCCCCCCCCCCCCCCC(=O)N[C@@H](Cc1ccc(OCCCCC)cc1)C(O)CP(=O)(O)O (single isomer, unassigned) [f29]', 'ATX activity (%) 1 μM', '%', 98),
  ('CCCCCCCCCCCCCCCC(=O)N[C@@H](Cc1ccc(OC)cc1)C(O)CP(=O)(O)O (single isomer, unassigned) [f22]', 'ATX activity (%) 1 μM', '%', 84),
  ('CCCCCCCCCCCCCCCC(=O)N[C@@H](Cc1ccc(OCCC)cc1)C(O)CP(=O)(O)O (single isomer, unassigned) [f25]', 'ATX activity (%) 1 μM', '%', 110),
  ('CCCCCCCCCCCCCCCC(=O)N[C@H](Cc1ccc(OCc2ncc(C)c(OC)c2C)cc1)C(O)CP(=O)(O)O (single isomer, unassigned) [f15]', 'ATX activity (%) 1 μM', '%', 108);

* * *

target: recombinant human ATX (Homo sapiens, UniProt Q13822); assay: Choline detection assay for ATX; type: biochemical; details: Table 2 (f35-f44); 100 μM test compound; activity without test compound = 100%; 100 µM
READOUT_LABEL: ATX activity (%) 100 μM

INSERT INTO measurements (compound, system_name, reported_measurement) VALUES
  ('CCCCCCCCCCCCCCCCCC(=O)N[C@@H](Cc1ccc(OCc2ncc(C)c(OC)c2C)cc1)C(O)CP(=O)(O)O (single isomer, unassigned) [f39]', 'recombinant human ATX (Homo sapiens, UniProt Q13822)', 81),
  ('CCCCCCCCCCCCCCCCCC(=O)N[C@@H](Cc1ccc(OCc2ncc(C)c(OC)c2C)cc1)C(O)CP(=O)(O)O (single isomer, unassigned) [f40]', 'recombinant human ATX (Homo sapiens, UniProt Q13822)', 62),
  ('CCCCCCCCCCCCCC(=O)N[C@H](Cc1ccc(OCc2ncc(C)c(OC)c2C)cc1)C(O)CP(=O)(O)O (single isomer, unassigned) [f38]', 'recombinant human ATX (Homo sapiens, UniProt Q13822)', 35);

* * *

target: recombinant human ATX (Homo sapiens); test: Choline detection assay for ATX; format: biochemical; details: Table 2 (f35-f44); 10 μM test compound; activity without test compound = 100%; 10 µM
Parameter: ATX activity (%) 10 μM. Scope: all listed entries.
READOUT_LABEL: ATX activity (%) 10 μM

INSERT INTO results (compound, readout_label, scale_unit, reported_measurement) VALUES
  ('CCCCCCCCCCCCCCCCCC(=O)N[C@@H](Cc1ccc(OCc2ncc(C)c(OC)c2C)cc1)C(O)CP(=O)(O)O (single isomer, unassigned) [f40]', 'ATX activity (%) 10 μM', '%', 90),
  ('CCCCCCCC/C=C\CCCCCCCC(=O)N[C@@H](Cc1ccc(OCc2ncc(C)c(OC)c2C)cc1)C(O)CP(=O)(O)O (single isomer, unassigned) [f41]', 'ATX activity (%) 10 μM', '%', 45),
  ('CCCCCCCCCCCCCCCCCC(=O)N[C@@H](Cc1ccc(OCc2ncc(C)c(OC)c2C)cc1)C(O)CP(=O)(O)O (single isomer, unassigned) [f39]', 'ATX activity (%) 10 μM', '%', 91),
  ('CCCCCCCC/C=C\CCCCCCCC(=O)N[C@@H](Cc1ccc(OCc2ncc(C)c(OC)c2C)cc1)C(O)CP(=O)(O)O (single isomer, unassigned) [f42]', 'ATX activity (%) 10 μM', '%', 68);
